Hey, just so you know, these numbers are from patent US4639450A.

test system: liver dysfunction (hepatitis) induced by D-galactosamine; assay: Experiment I: effect on the liver dysfunction (hepatitis) induced by D-galactosamine, test compound administered into the abdominal cavity; format: in vivo, Rats of the SD series; details: Table 1, 50 mg/Kg each time, D-galactosamine hydrochloride 250 mg/Kg, normal 32.3 ± 3.3, control 94.2 ± 6.9
measured metric: Alkali Phosphatase Value (KA unit)
The answer is to be given in KA unit; state only the numeric part.

The recorded Alkali Phosphatase Value with liver dysfunction (hepatitis) induced by D-galactosamine for CC(C)CCCC(C)CCCC(C)CCCC(C)CC(=O)N1CCOCC1 (stereo not shown) [compound C] was 23.5

The recorded Alkali Phosphatase Value with liver dysfunction (hepatitis) induced by D-galactosamine for CC(C)=CCC/C(C)=C/CC/C(C)=C/CCC(C)CC(=O)N1CCN(CCO)CC1 (stereo not shown) [compound G] was 29.6

The recorded Alkali Phosphatase Value with liver dysfunction (hepatitis) induced by D-galactosamine for CC(C)=CCC/C(C)=C/CCC(C)CC(=O)N1CCOCC1 (stereo not shown) [compound B] was 40.2

The recorded Alkali Phosphatase Value with liver dysfunction (hepatitis) induced by D-galactosamine for CC(C)=CCC/C(C)=C/CC/C(C)=C/CCC(C)CC(N)=O (stereo not shown) [compound E] was 32.1

The recorded Alkali Phosphatase Value with liver dysfunction (hepatitis) induced by D-galactosamine for CC(C)=CCC/C(C)=C/CC/C(C)=C/CCC(C)CC(=O)N(C)C (stereo not shown) [compound F] was 28.0

The recorded Alkali Phosphatase Value with liver dysfunction (hepatitis) induced by D-galactosamine for CC(C)CCCC(C)CCCC(C)CC(=O)N1CCOCC1 (stereo not shown) [compound A, 4-(3,7,11-trimethyldodecanoyl)morpholine] was 31.9

The recorded Alkali Phosphatase Value with liver dysfunction (hepatitis) induced by D-galactosamine for CC(C)=CCC/C(C)=C/CC/C(C)=C/CCC(C)CC(=O)N1CCOCC1 (stereo not shown) [compound D] was 28.5

====

Tested on: liver dysfunction (hepatitis) induced by D-galactosamine
Test: Experiment I: effect on the liver dysfunction (hepatitis) induced by D-galactosamine, test compound administered into the abdominal cavity
Assay type: in vivo, Rats of the SD series
Settings: Table 2, 50 mg/Kg each time, D-galactosamine hydrochloride 250 mg/Kg, normal 48.9 ± 4.7, control 125.7 ± 4.9
Protocol: The effect on the liver dysfunction (hepatitis) induced by D-galactosamine by administration into the abdominal cavity was examined. Rats of the SD series having a body weight of about 250 g were used as test animals. […] After termination of the experiment, blood was collected from the test animals, and the GOT value, GPT value and alkali phosphatase value, which are indicators of the degree of the liver dysfunction, were measured. […]
measured metric: Alkali Phosphatase Value (KA unit)
The answer is to be given in KA unit; state only the numeric part.

Alkali Phosphatase Value reading for CC(C)=CCCC(C)=CCCC(C)=CCCC(C)=CC(N)=O [compound J] : 49.9

Alkali Phosphatase Value reading for CC(=CC(=O)N1CCOCC1)CCCC(C)CCCC(C)CCCC(C)C (centres unmarked) [compound I] : 35.4

Alkali Phosphatase Value reading for CC(C)=CCCC(C)=CCCC(C)=CCCC(C)=CC(=O)N(C)C [compound K] : 45.2

Alkali Phosphatase Value reading for CC(C)=CCCC(C)=CCCC(C)=CCCC(C)=CC(=O)N1CCN(CCO)CC1 [compound L] : 42.8

Alkali Phosphatase Value reading for CC(=CC(=O)N1CCOCC1)CCCC(C)CCCC(C)C (centres unmarked) [compound H] : 49.0

====

test system: liver dysfunction (hepatitis) induced by D-galactosamine; assay: Experiment II: effect on the liver dysfunction (hepatitis) induced by D-galactosamine, oral administration; type: in vivo, Rats of the SD series; details: Tables 3 and 4, 400 mg/Kg each time, D-galactosamine hydrochloride 200 mg/Kg hypodermically, normal 49.3 ± 4.4, control 67.4 ± 2.9
Decision: Alkali Phosphatase Value >= 60 KA unit yields True, all other cases yield False.

Form field: Alkali Phosphatase Value at least 60 KA unit? Entry: CC(C)=CCC/C(C)=C/CCC(C)CC(=O)N1CCOCC1 (stereo not drawn)
True

Form field: Alkali Phosphatase Value at least 60 KA unit? Entry: CC(C)CCCC(C)CCCC(C)CC(=O)N1CCOCC1 (stereo not drawn)
True

Form field: Alkali Phosphatase Value at least 60 KA unit? Entry: CC(C)=CCC/C(C)=C/CC/C(C)=C/CCC(C)CC(=O)N1CCOCC1 (stereo not drawn)
False

Form field: Alkali Phosphatase Value at least 60 KA unit? Entry: CC(C)CCCC(C)CCCC(C)CCCC(C)CC(=O)N1CCOCC1 (stereo not drawn)
False

Form field: Alkali Phosphatase Value at least 60 KA unit? Entry: CC(=CC(=O)N1CCOCC1)CCCC(C)CCCC(C)CCCC(C)C (stereo not drawn)
False

====

system: liver dysfunction (hepatitis) induced by D-galactosamine; assay: Experiment II: effect on the liver dysfunction (hepatitis) induced by D-galactosamine, oral administration; format: in vivo, Rats of the SD series; conditions: Tables 3 and 4, 400 mg/Kg each time, D-galactosamine hydrochloride 200 mg/Kg hypodermically, normal 129.4 ± 12.6, control 573.7 ± 59.1
Please provide measured GOT Value for the entries that follow.

GOT Value reading for CC(C)=CCC/C(C)=C/CC/C(C)=C/CCC(C)CC(=O)N1CCOCC1 (stereo not drawn) : 84.8 ± 8.9 carmen unit

GOT Value reading for CC(C)=CCC/C(C)=C/CCC(C)CC(=O)N1CCOCC1 (stereo not drawn) : 233.3 ± 22.2 carmen unit

GOT Value reading for CC(C)CCCC(C)CCCC(C)CCCC(C)CC(=O)N1CCOCC1 (stereo not drawn) : 231.1 ± 26.4 carmen unit

GOT Value reading for CC(=CC(=O)N1CCOCC1)CCCC(C)CCCC(C)CCCC(C)C (stereo not drawn) : 284.9 ± 36.4 carmen unit

GOT Value reading for CC(C)CCCC(C)CCCC(C)CC(=O)N1CCOCC1 (stereo not drawn) : 193.0 ± 18.5 carmen unit

GOT Value reading for CC(C)=CCCC(C)=CCCC(C)=CCCC(C)=CC(=O)N1CCOCC1 : 178.4 ± 10.3 carmen unit
